Molecular target: AMP-activated protein kinase (AMPK) alpha-1/beta-1/gamma-1 (Homo sapiens) (UniProt P54619+Q9Y478+Q13131)
Sequence (P54619 whole entry): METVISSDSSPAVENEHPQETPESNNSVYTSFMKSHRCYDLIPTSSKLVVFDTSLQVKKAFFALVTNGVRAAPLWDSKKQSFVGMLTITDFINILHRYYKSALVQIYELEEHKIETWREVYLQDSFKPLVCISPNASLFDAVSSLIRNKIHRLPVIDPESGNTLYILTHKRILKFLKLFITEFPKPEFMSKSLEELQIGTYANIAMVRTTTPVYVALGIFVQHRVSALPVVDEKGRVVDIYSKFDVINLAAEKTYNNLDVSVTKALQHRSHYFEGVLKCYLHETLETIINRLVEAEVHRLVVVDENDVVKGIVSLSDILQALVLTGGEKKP
Sequence (Q13131 whole entry partner): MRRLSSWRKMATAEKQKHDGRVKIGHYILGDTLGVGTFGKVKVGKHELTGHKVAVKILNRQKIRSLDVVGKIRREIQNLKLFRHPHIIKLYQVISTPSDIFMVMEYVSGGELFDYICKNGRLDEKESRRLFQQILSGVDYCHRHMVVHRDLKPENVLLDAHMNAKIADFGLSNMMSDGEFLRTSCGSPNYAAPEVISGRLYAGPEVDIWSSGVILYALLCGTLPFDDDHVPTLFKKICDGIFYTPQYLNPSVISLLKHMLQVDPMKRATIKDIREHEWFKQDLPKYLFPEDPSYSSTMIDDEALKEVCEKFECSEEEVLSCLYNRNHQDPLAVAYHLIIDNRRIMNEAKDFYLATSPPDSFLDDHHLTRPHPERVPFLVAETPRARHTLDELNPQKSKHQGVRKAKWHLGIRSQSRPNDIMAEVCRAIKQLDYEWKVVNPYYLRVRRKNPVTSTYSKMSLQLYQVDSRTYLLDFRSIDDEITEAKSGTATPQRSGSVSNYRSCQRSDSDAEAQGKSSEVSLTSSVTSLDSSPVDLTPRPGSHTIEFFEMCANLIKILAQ
Sequence (Q9Y478 2-270 partner limits assumed): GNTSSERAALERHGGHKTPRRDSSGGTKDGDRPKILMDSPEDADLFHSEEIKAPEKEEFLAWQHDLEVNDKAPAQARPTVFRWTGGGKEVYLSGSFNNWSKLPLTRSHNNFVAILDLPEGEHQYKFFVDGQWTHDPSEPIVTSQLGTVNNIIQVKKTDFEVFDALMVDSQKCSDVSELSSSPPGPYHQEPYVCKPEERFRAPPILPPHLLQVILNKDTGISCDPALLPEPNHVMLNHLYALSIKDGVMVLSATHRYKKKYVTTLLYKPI
Details: at 1 µM
Exercise: state measured residual activity for each of the molecules provided.
Numbers only, in %.

// worked examples, residual activity included
| compound | property name | recorded result |
| --- | --- | --- |
| N#Cc1c(NC(=O)c2cccc3ccccc23)sc2c1CCCC2 | residual activity | 86 |
| O=C(c1ccccc1)c1ccc(N2CCOCC2)cc1O | residual activity | 98 |

Give residual activity for each of the items listed below.
1. Nc1nc(Nc2ccc(S(N)(=O)=O)cc2)nn1C(=O)c1c(F)cccc1F
2. O=C1Cc2c([nH]c3ccc([N+](=O)[O-])cc23)-c2ccccc2N1
3. CC(C)(C)c1nc2c3ccc(F)cc3c3c(=O)[nH]ccc3c2[nH]1
4. O=C(c1cc2cc(O)ccc2[nH]1)c1cc2cc(O)ccc2[nH]1

58
48
33
16

====

Biological target: Interleukin-1 receptor-associated kinase 4 (Homo sapiens)
Sequence (whole entry): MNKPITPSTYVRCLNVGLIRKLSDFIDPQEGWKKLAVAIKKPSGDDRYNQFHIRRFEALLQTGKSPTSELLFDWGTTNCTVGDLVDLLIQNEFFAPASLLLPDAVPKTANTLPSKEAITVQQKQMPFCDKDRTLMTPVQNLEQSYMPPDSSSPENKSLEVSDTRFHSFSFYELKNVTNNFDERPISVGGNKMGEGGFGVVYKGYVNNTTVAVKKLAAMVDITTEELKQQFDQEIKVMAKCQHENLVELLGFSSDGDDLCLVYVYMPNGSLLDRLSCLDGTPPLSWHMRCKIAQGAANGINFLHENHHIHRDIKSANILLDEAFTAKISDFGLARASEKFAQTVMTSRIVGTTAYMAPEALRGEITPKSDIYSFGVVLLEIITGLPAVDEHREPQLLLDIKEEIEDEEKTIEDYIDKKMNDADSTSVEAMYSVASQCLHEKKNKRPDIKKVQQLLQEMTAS
Details: at 10 µM
property name: residual activity (%)
One number for each entry, in %.

| compound | display unit | residual activity |
| --- | --- | --- |
| O=C(c1ccccc1)c1ccc(N2CCOCC2)cc1O | % | 93 |

// each compound listed below needs its residual activity
1. N#Cc1c(NC(=O)c2cccc3ccccc23)sc2c1CCCC2
2. O=C(c1cc2cc(O)ccc2[nH]1)c1cc2cc(O)ccc2[nH]1

72
20

====

Target: Serine/threonine-protein kinase TAO1 (Homo sapiens)
Conditions: at 1 µM
property name: residual activity (%)
Numbers only, in %.

| compound | residual activity (%) |
| --- | --- |
| Nc1ncnc2[nH]nc(Nc3ccc(F)cc3)c12 | 107 |
| CC(C)[C@H](CO)Nc1nc(Nc2cc(N)cc(Cl)c2)c2ncn(C(C)C)c2n1 | 92 |
| O=C(CCCc1ccc(-c2ccccc2F)cc1)Nc1ccc(O)cc1 | 103 |
| O=C1C(Cl)=C(N2C(=O)CCC2=O)C(=O)c2ccccc21 | 89 |
| O=C1Cc2c([nH]c3ccc([N+](=O)[O-])cc23)-c2ccccc2N1 | 54 |

For each of the compounds below, state residual activity.
1. O=C(c1cc2cc(O)ccc2[nH]1)c1cc2cc(O)ccc2[nH]1
2. COc1ccc(-c2cnc3c(-c4ccsc4)cnn3c2)cc1

70
97

Respectfully, I request residual activity for each entry included below.
1. O=C(O)/C=C/c1cc(Br)c(Br)c(Br)c1Br
2. CN(C)S(=O)(=O)c1ccc2c(c1)/C(=C/c1cc3c([nH]1)CCCC3)C(=O)N2
3. CC(C)c1nn(-c2c(Cl)cccc2Cl)c2nc(Cc3ccc(OCCO)cc3)[nH]c(=O)c12

1: 77; 2: 37; 3: 61

Bench note: what residual activity did `Nc1ncnc2c1cnn2-c1ccccc1` show? 94
